Test system: K98450-129-R-PDC complex spheroid growth, percent test/control
test_protocol: Anticancer human tumor K98450-129-R-PDC patient-derived colon adenocarcinoma cell line growth inhibition [RAS]
experimental_parameters: second compound 0.01 µM; first compound 0.316 µM; stronger effect = lower value
Description: RAS pathway inhibitors in Combinations in Complex Spheroids A high-throughput screen of multi-cell type tumor spheroids was designed to identify active combinations of RAS pathway inhibitors and targeted small molecules. Complex spheroids include a stromal component modeled by human endothelial cells (HUVEC) and fibroblasts modeled by human mesenchymal stem cells (MSCs). […] Compounds. […] If the clinical Cmax for an agent had not been determined, the highest concentration tested was 10 microM. […]
endpoint: viability, T/C (%)
Response body: numeric value in %, unit text excluded.

compound	endpoint	measured
CC1(O)CCCC1n1c(=O)c(C(F)F)cc2cnc(NC3CCN(S(C)(=O)=O)CC3)nc21 (stereo not drawn) + C=CC(=O)N1CCN(c2nc(OCC3CCCN3C)nc3c(F)c(-c4nc(N)cc(C)c4C(F)(F)F)c(Cl)cc23)C(C)C1	viability, T/C	71.2

Data request, read-out viability, T/C, for CCC(CC)c1cc(NC2CCC(N)C2)n2nccc2n1 (stereo not drawn) + C=CC(=O)N1CCN(c2nc(OCC3CCCN3C)nc3c(F)c(-c4nc(N)cc(C)c4C(F)(F)F)c(Cl)cc23)C(C)C1 84.6

Data request, read-out viability, T/C, for C=CC(=O)Nc1cc(Nc2nccc(-c3cn(C)c4ccccc34)n2)c(OC)cc1N(C)CCN(C)C + C=CC(=O)N1CCN(c2nc(OCC3CCCN3C)nc3c(F)c(-c4nc(N)cc(C)c4C(F)(F)F)c(Cl)cc23)C(C)C1 11.4

----------
Tested on: K98450-129-R-PDC complex spheroid growth, percent test/control
test_protocol: Anticancer human tumor K98450-129-R-PDC cell line growth inhibition [RAS];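 further: luminescence used as a proxy for viable cell amount; spheroids exposed to agents for seven days before the viability readout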
experimental_parameters: second compound 0.00949 µM; first compound 10 µM; stronger effect = lower value
Exam item: assign yes (1) to entries whose viability, T/C is below 40% and no (0) to entries at or above 40%. Note that a value of exactly 40% receives no (0).

Completed entries (count: 3):
compound	discrete_label
CC(=O)OC12COC1CC(O)C1(C)C(=O)C(O)C3=C(C)C(OC(=O)C(O)C(NC(=O)OC(C)(C)C)c4ccccc4)CC(O)(C(OC(=O)c4ccccc4)C21)C3(C)C (stereo not given) + CCn1c(-c2cccnc2C(C)OC)c2c3cc(ccc31)N1CCOC(CC(NC(=O)C(C(C)C)N(C)C(=O)C3(F)CCN(C(=O)C#CC(C)(C)N(C)C)CC3)C(=O)N3CCCC(N3)C(=O)OCC(C)(C)C2)C1	yes (1)
CC(C)NCC(C(=O)N1CCN(c2ncnc3c2C(C)CC3O)CC1)c1ccc(Cl)cc1 (stereo not given) + CCn1c(-c2cc(N3CCN(C)CC3)cnc2C(C)OC)c2c3cc(ccc31)-c1csc(n1)CC(NC(=O)C1CC1C)C(=O)N1CCCC(N1)C(=O)OCC(C)(C)C2	no (0)
CC1(O)CCCC1n1c(=O)c(C(F)F)cc2cnc(NC3CCN(S(C)(=O)=O)CC3)nc21 (stereo not given) + CCn1c(-c2cccnc2C(C)OC)c2c3cc(ccc31)N1CCOC(CC(NC(=O)C(C(C)C)N(C)C(=O)C3(F)CCN(C(=O)C#CC(C)(C)N(C)C)CC3)C(=O)N3CCCC(N3)C(=O)OCC(C)(C)C2)C1	yes (1)

I wonder whether C[C@@H](NC(=O)c1ncnc(N)c1Cl)c1ncc(C(=O)Nc2cc(C(F)(F)F)c(Cl)cn2)s1 + CCn1c(-c2cc(N3CCN(C)CC3)cnc2C(C)OC)c2c3cc(ccc31)-c1csc(n1)CC(NC(=O)C1CC1C)C(=O)N1CCCC(N1)C(=O)OCC(C)(C)C2 has viability, T/C below 40%. Can you tell? no (0)

I wonder whether NC1c2ccccc2OC12CCN(c1cnc3c(N4CCCc5ncccc54)n[nH]c3n1)CC2 (stereo not given) + CCn1c(-c2cc(N3CCN(C)CC3)cnc2C(C)OC)c2c3cc(ccc31)-c1csc(n1)CC(NC(=O)C1CC1C)C(=O)N1CCCC(N1)C(=O)OCC(C)(C)C2 has viability, T/C below 40%. Can you tell? yes (1)

I wonder whether CCC(CC)c1cc(NC2CCC(N)C2)n2nccc2n1 (stereo not given) + CCn1c(-c2cccnc2C(C)OC)c2c3cc(ccc31)N1CCOC(CC(NC(=O)C(C(C)C)N(C)C(=O)C3(F)CCN(C(=O)C#CC(C)(C)N(C)C)CC3)C(=O)N3CCCC(N3)C(=O)OCC(C)(C)C2)C1 has viability, T/C below 40%. Can you tell? yes (1)

I wonder whether CC(Nc1ccc2c(c1)OCCn1cc(N3C(=O)OCC3C(F)F)nc1-2)C(N)=O (stereo not given) + CCn1c(-c2cccnc2C(C)OC)c2c3cc(ccc31)N1CCOC(CC(NC(=O)C(C(C)C)N(C)C(=O)C3(F)CCN(C(=O)C#CC(C)(C)N(C)C)CC3)C(=O)N3CCCC(N3)C(=O)OCC(C)(C)C2)C1 has viability, T/C below 40%. Can you tell? yes (1)

I wonder whether CC1(O)CCCC1n1c(=O)c(C(F)F)cc2cnc(NC3CCN(S(C)(=O)=O)CC3)nc21 (stereo not given) + CCn1c(-c2cc(N3CCN(C)CC3)cnc2C(C)OC)c2c3cc(ccc31)-c1csc(n1)CC(NC(=O)C1CC1C)C(=O)N1CCCC(N1)C(=O)OCC(C)(C)C2 has viability, T/C below 40%. Can you tell? no (0)

I wonder whether Cc1nc(N2CCC3(CC2)COC(C)C3N)c(CO)nc1Sc1ccnc(N)c1Cl (stereo not given) + CCn1c(-c2cc(N3CCN(C)CC3)cnc2C(C)OC)c2c3cc(ccc31)-c1csc(n1)CC(NC(=O)C1CC1C)C(=O)N1CCCC(N1)C(=O)OCC(C)(C)C2 has viability, T/C below 40%. Can you tell? yes (1)

Cited source: PubChem BioAssay AID2060891
